Recorded CC50 values for a group of compounds are listed next.
- Test system: IGROV-ET
- Test: SRB colorimetric assay of cell growth and viability, IGROV-ET
- Assay type: cell-based, human
- Condition context: IGROV-ET; 48 hours exposure; read-out: LC50 IGROV-ET
Where a SMILES comes first, the peptide text is derived from it. Bridges are numbered along the chain shown (N, C = ends). [ ]: non-standard residue; d: D form. The star is where a group is joined. d(aIle) = CC[C@H](C)[C@@H](N)C(=O)O; d(aThr) = C[C@@H](O)[C@@H](N)C(=O)O; Hexanoyl(5-Me) = CC(C)CCCC(=O)*; Phg = N[C@H](C(=O)O)c1ccccc1; Orn = NCCC[C@H](N)C(=O)O; Dhb = C/C=C(\N)C(=O)O
Answer format: numeric, µM implied, no suffix.

Here are 3 compounds together with their reported answers.
[[record]]
compound = "C/C=C1\\NC(=O)[C@H](c2ccccc2)NC(=O)[C@@H](C(C)C)NC(=O)[C@@H]([C@@H](C)CC)NC(=O)[C@H](NC(=O)[C@H](NC(=O)[C@H](CCCN)NC(=O)[C@H]2CCCN2C(=O)[C@H](NC(=O)[C@@H](NC(=O)[C@@H](NC(=O)[C@H](NC(=O)CCCC(C)C)C(C)C)[C@@H](C)O)C(C)C)C(C)C)[C@@H](C)CC)[C@@H](C)OC(=O)[C@H](C(C)C)NC1=O [Compound 87, [Phg^3]-KF] ({Hexanoyl(5-Me)}-[dV]TV[dV][dP][Orn][d(aIle)][d(aThr)][d(aIle)][dV][Phg][Dhb]V; ester 8-C)"
measured_quantity = "CC50"
value = 1.9

[[record]]
compound = "C/C=C1\\NC(=O)[C@H](Cc2ccccc2)NC(=O)[C@@H](C(C)C)NC(=O)[C@@H]([C@@H](C)CC)NC(=O)[C@H](NC(=O)[C@H](NC(=O)[C@H](CCCN)NC(=O)[C@H]2CCCN2C(=O)[C@H](NC(=O)[C@@H](NC(=O)[C@H](CCCN)NC(=O)[C@H](NC(=O)CCCC(C)C)C(C)C)C(C)C)C(C)C)[C@@H](C)CC)[C@@H](C)OC(=O)[C@H](C(C)C)NC1=O [Compound 116, [Orn^12]-KF] ({Hexanoyl(5-Me)}-[dV][Orn]V[dV][dP][Orn][d(aIle)][d(aThr)][d(aIle)][dV]F[Dhb]V; ester 8-C)"
measured_quantity = "CC50"
value = 5.55

[[record]]
compound = "C/C=C1\\NC(=O)[C@H](Cc2ccccc2)NC(=O)[C@@H](C(C)C)NC(=O)[C@@H]([C@@H](C)CC)NC(=O)[C@H](NC(=O)[C@H](NC(=O)[C@H](CCCN)NC(=O)[C@H]2CCCN2C(=O)[C@H](NC(=O)[C@@H](NC(=O)[C@@H]2CCCN2C(=O)[C@H](NC(=O)CCCC(C)C)C(C)C)C(C)C)C(C)C)[C@@H](C)CC)[C@@H](C)OC(=O)[C@H](C(C)C)NC1=O [Compound 117, [Pro^12]-KF] ({Hexanoyl(5-Me)}-[dV]PV[dV][dP][Orn][d(aIle)][d(aThr)][d(aIle)][dV]F[Dhb]V; ester 8-C)"
measured_quantity = "CC50"
value = 5.34


Short answer please: CC50, IGROV-ET, entry C/C=C1\NC(=O)[C@H](Cc2ccc(F)c(F)c2)NC(=O)[C@@H](C(C)C)NC(=O)[C@@H]([C@@H](C)CC)NC(=O)[C@H](NC(=O)[C@H](NC(=O)[C@H](CCCN)NC(=O)[C@H]2CCCN2C(=O)[C@H](NC(=O)[C@@H](NC(=O)[C@@H](NC(=O)[C@H](NC(=O)CCCC(C)C)C(C)C)[C@@H](C)O)C(C)C)C(C)C)[C@@H](C)CC)[C@@H](C)OC(=O)[C@H](C(C)C)NC1=O [Compound 84, [Phe(3,4-F2)^3]-KF]
0.343

The reported numbers originate from patent US20070117743A1.
